Test system: PC-3
method notes: Cytotoxicity against human PC3 cells after 72 hrs by MTT assay
Assay type: functional, cell-based
condition context: PC-3, 72 h
observation type: pIC50
# log scale: pIC50 equals minus log10 of the concentration in mol/L

Worked set:
INSERT INTO measurements (chem_smiles, observation_type, measured) VALUES
  ('CN(C)CCCN1C(=O)c2cccc3c2c(cc2nnn(CCO)c23)C1=O', 'pIC50', 4.60),
  ('CN(C)CCCN1C(=O)c2cccc3c2c(cc2nnn(C)c23)C1=O', 'pIC50', 5.49);

Next molecule, please.
Prompt: Return pIC50 (reported value) for this molecule: CN(C)CCN1C(=O)c2cccc3c2c(cc2nnn(CCN(C)C)c23)C1=O
Response: 6.14

* * *

Tested on: HCT-116
method notes: Cytotoxicity against human HCT116 cells after 72 hrs by MTT assay
Assay type: functional, cell-based
condition context: HCT-116, 72 h
observation type: log10(IC50) (log10 of the value in nM)
log10 IC50, nM

Prompt: Return log10(IC50) (reported value) for this compound: CN(C)CCCn1nnc2cc3c4c(cccc4c21)C(=O)N(CCN(C)C)C3=O
Response: 2.18

Prompt: Return log10(IC50) (reported value) for this compound: COc1ccc(Nc2cc3c4c(cccc4c2)C(=O)N(CCN(C)C)C3=O)cc1
Response: 3.09

Prompt: Return log10(IC50) (reported value) for this compound: CN(C)CCN1C(=O)c2cccc3cc(N)cc(c23)C1=O [AMONAFIDE]
Response: 3.66

Prompt: Return log10(IC50) (reported value) for this compound: CN(C)CCCN1C(=O)c2cccc3c2c(cc2nnn(CCCN(C)C)c23)C1=O
Response: 2.54

Prompt: Return log10(IC50) (reported value) for this compound: CN(C)CCN1C(=O)c2cccc3cc(Nc4ccc([N+](=O)[O-])cc4)cc(c23)C1=O
Response: 2.79
